# target.or.test.system: CK1alpha (Homo sapiens, UniProt P48729+Q96SW2)
# Construct: endogenous in cells; host or cells: MM1 S (ATCC CRL-2974)
# Sequence (P48729 whole entry): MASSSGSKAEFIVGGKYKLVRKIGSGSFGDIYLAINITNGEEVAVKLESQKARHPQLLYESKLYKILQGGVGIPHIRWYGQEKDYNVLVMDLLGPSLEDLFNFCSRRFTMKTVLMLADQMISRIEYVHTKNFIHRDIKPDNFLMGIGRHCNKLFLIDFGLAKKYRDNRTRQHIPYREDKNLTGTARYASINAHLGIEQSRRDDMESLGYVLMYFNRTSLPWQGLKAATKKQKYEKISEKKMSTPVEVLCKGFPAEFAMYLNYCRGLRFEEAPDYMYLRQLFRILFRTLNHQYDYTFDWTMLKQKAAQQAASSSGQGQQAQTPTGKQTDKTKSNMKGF
# Sequence (Q96SW2 whole entry): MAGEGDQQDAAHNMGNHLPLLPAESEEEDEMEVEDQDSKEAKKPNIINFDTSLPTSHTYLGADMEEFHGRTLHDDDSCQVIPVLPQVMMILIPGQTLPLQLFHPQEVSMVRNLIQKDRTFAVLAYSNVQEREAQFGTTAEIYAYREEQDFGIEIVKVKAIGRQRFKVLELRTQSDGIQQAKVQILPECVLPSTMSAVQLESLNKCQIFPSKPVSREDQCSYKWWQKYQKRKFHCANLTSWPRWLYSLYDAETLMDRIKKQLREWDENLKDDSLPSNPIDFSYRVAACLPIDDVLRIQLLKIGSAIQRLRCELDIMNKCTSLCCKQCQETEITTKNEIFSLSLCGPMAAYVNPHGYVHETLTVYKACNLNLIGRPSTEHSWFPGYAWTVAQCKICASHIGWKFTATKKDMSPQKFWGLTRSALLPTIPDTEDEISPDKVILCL
# Sequence (Q16531 whole entry partner): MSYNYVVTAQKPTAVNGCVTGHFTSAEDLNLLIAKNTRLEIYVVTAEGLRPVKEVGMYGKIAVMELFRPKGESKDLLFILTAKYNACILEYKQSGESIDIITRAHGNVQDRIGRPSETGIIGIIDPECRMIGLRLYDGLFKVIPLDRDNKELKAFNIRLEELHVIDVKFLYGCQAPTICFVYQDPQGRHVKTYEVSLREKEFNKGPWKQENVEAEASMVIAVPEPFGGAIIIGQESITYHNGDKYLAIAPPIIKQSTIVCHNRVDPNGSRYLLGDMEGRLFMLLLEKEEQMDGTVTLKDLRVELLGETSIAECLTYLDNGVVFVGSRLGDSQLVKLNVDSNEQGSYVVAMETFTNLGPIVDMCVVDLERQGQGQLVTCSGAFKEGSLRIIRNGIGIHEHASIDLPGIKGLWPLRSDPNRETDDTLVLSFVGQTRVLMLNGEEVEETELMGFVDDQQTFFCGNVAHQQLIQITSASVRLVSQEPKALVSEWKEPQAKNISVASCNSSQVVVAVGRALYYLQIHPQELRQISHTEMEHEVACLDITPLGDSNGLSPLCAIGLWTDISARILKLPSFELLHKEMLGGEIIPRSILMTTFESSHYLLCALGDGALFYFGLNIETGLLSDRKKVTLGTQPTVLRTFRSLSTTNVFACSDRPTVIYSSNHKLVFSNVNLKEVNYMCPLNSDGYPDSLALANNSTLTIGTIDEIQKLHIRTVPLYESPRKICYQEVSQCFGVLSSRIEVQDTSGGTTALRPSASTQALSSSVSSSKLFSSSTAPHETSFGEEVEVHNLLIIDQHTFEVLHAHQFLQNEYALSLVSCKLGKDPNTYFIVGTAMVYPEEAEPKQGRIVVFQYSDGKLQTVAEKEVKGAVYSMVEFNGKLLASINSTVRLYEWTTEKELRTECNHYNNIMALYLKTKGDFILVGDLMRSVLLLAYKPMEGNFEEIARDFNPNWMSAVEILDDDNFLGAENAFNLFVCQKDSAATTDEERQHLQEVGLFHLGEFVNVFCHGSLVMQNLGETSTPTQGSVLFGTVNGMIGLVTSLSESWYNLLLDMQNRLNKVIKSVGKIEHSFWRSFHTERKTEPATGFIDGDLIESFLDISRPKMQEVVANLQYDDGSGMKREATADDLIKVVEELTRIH
# measurement.notes: Selectivity western blot assay in MM1 S cells, CK1alpha
# Format: cell-based
# Design: key: A represents no degradation observed at 30 μM; B represents trace degradation at 30 μM (below 20%); C represents weak degradation at 30 μM (below 50%); D represents degradation at 30 μM (>90%); E represents degradation at 3 μM (>90%); F represents degradation at 0.3 μM (>90%)
# condition.description: MM1 S cells, 0.3, 3 and 30 μM, 6 hours
measurement.label: CK1alpha degradation

O=C1CCC(N2Cc3ccc(CNC(=O)Nc4cccc(CN5CCOCC5)c4)cc3C2=O)C(=O)N1 (centres unmarked) [Compound 105]: A
Cc1ncc(NC(=O)OCc2ccc3c(c2)C(=O)N(C2CCC(=O)NC2=O)C3)cc1Cl (centres unmarked) [Compound 206]: A
Cc1c(Cl)cc(NC(=O)NCc2ccc3c(c2)C(=O)N(C2CCC(=O)NC2=O)C3)cc1CN(C)C (centres unmarked) [Compound 75]: A
